// reported A450 per item
Molecular target: T1, Mouse Id1: Histidine (mouse, UniProt P20067-2 1-148, limits assumed)
T1 construct: Fusion protein made in E. coli from vector pGW07; also called m-Id1-His; not shown: His tag
T1 sequence (looked up): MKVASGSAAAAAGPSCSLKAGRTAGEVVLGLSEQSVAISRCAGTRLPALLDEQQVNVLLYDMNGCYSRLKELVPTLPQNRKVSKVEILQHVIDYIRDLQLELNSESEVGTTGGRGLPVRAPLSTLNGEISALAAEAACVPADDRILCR
Assay: ELISA, Ab 0.000 µg/ml (blank)
Method: The rabbit monoclonal anti-human Id3 (clone #3-3) and the rabbit monoclonal anti-mouse/human Id3 (clones #6-1, 16-1, 17-3, and 42-1) produced in Example 6 were tested reactivity against the following antigens: mouse Id1:His, human Id1:His, mouse Id2:His, human Id2:His, mouse Id3:His, human Id3:His, mouse Id4:His, human Id4:His and GST. 1. […]
Field: numeric (A450). Do not append units.

{"binder": "rabbit monoclonal anti-mouse/human Id3, clone #BCH-4/#17-3 (antibody, V domains shown, Rabbit IgG from a rabbit hybridoma; also called m/h Id3 MoAb 17-3; BCH-3/#17-3) VH: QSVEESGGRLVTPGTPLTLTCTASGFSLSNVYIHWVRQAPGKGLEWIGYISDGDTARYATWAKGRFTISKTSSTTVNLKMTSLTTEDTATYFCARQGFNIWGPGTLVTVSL VL: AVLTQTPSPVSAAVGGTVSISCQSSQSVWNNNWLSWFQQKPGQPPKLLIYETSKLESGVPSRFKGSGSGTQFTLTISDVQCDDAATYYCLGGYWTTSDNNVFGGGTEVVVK", "readout.value": 0.045}
{"binder": "rabbit monoclonal anti-mouse/human Id3, clone #BCH-4/#6-1 (antibody, V domains shown, Rabbit IgG from a rabbit hybridoma; also called m/h Id3 MoAb 6-1) VH: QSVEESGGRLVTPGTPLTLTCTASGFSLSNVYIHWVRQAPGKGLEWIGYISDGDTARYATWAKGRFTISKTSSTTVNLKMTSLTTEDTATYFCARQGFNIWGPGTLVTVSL VL: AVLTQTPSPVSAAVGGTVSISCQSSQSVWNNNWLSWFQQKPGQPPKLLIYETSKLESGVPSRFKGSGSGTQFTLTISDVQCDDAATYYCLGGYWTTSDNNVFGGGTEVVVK", "readout.value": 0.045}
{"binder": "rabbit monoclonal anti-mouse/human Id3, clone #BCH-4/#42-1 (antibody, V domains shown, Rabbit IgG from a rabbit hybridoma; also called m/h Id3 MoAb 42-1) VH: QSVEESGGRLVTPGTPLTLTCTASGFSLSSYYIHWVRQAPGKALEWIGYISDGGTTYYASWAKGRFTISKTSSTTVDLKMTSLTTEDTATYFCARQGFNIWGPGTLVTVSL VL: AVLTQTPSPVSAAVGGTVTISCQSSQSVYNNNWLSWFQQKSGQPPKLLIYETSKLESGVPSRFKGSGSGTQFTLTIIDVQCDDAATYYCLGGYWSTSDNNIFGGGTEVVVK", "readout.value": 0.052}
{"binder": "rabbit monoclonal anti-mouse/human Id3, clone #BCH-4/#16-1 (antibody, V domains shown, Rabbit IgG from a rabbit hybridoma; also called m/h Id3 MoAb 16-1) VH: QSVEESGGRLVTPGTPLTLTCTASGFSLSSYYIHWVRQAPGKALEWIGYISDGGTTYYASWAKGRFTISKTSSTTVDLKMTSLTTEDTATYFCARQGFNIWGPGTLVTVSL VL: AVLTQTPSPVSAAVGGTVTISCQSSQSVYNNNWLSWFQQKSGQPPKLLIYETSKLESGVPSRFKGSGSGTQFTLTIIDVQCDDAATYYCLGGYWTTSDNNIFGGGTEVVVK", "readout.value": 0.044}

Fill in the blank: the reported A450 of rabbit monoclonal anti-human Id3, clone #BCH-4/#3-3 (antibody, V domains shown, Rabbit IgG from a rabbit hybridoma; also called h Id3 MoAb 3-3) VH: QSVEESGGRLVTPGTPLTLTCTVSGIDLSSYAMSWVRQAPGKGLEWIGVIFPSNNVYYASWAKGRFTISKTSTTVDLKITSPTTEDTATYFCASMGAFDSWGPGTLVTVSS VL: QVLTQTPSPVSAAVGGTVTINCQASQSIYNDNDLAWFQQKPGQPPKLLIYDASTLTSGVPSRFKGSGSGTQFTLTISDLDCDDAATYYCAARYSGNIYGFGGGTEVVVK is ____.
0.047

From: patent US20070178531A1
